These entries and their values trace back to ChEMBL document CHEMBL3991601.

The source made the active and inactive calls.
Can you tell me Kd for the items I'm about to list?

Lab note: need Kd for Cn1c(=O)c(F)c(Nc2ccc(I)cc2F)c2c(=O)n(C[C@@H](O)CO)cnc21 on Epidermal growth factor receptor (Homo sapiens), anyone have it? > 30 µM (inactive)

Query the reported Kd for Epidermal growth factor receptor (Homo sapiens); item: COc1cccc2cc(-c3nc([C@H]4CC[C@H](C(=O)O)CC4)n4ncnc(N)c34)[nH]c12 > 30 µM (inactive)

What Kd appears in the records for this compound with Epidermal growth factor receptor (Homo sapiens)? C#Cc1cccc(Nc2ncnc3cc4c(cc23)OCCOCCOCCO4)c1 10.1 µM (active)

Query for Epidermal growth factor receptor (Homo sapiens): what Kd does the record show for COc1ccc2c(OCc3nnc4ccc(-c5ccccc5)nn34)ccnc2c1 ? > 30 µM (inactive)

Lab request: please report Kd under test system Epidermal growth factor receptor (Homo sapiens) for COc1cccc(Nc2ncnn3ccc(CN4CC[C@@H](N)[C@H](O)C4)c23)c1 0.225 µM (active)

What reported Kd corresponds to C=CCN(/C=C1/C(=O)O[C@H](COC)[C@@]2(C)C1=C(O)C(=O)C1=C2[C@H](OC(C)=O)C[C@]2(C)C(=O)CC[C@@H]12)CC=C on Epidermal growth factor receptor (Homo sapiens)? > 30 µM (inactive)

Identify the measured Kd of CNC(=O)c1ccc(Nc2ncc(C(F)(F)F)c(NCc3nccnc3N(C)S(C)(=O)=O)n2)cc1 for Epidermal growth factor receptor (Homo sapiens). > 30 µM (inactive)

I'm curious: which Kd was measured for FC(F)(F)c1ccc(CNc2ccc(Cc3c[nH]c4ncc(Cl)cc34)cn2)cn1 tested on Epidermal growth factor receptor (Homo sapiens)? > 30 µM (inactive)

Can you look up Kd on Epidermal growth factor receptor (Homo sapiens) for COc1ccc(-c2ccc3ncc4c(c3c2)n(-c2ccc(N3CCNCC3)c(C(F)(F)F)c2)c(=O)n4C)cn1 [BGT-226 FREE BASE] ? > 30 µM (inactive)

Could you share what Kd was measured for C[C@@H]1COC(Nc2ccc3ncnc(Nc4ccc(OCc5nccs5)c(Cl)c4)c3c2)=N1 , tested on Epidermal growth factor receptor (Homo sapiens)? 0.005 µM (active)

Reported Kd for Epidermal growth factor receptor (Homo sapiens), given COc1cc2ncnc(Nc3ccc(O)cc3)c2cc1OC ? 1.16 µM (active)

Record lookup: for Epidermal growth factor receptor (Homo sapiens), what Kd belongs to O=C(NC[C@H](O)CO)c1ccncc1Nc1ccc(I)cc1F ? > 30 µM (inactive)

Any idea what Kd came out for COc1cc(Nc2ncc(F)c(Nc3ccc4c(n3)N(COP(=O)(O)O)C(=O)C(C)(C)O4)n2)cc(OC)c1OC on Epidermal growth factor receptor (Homo sapiens)? > 30 µM (inactive)

For the record O=C(Nc1ccc(OC(F)(F)F)cc1)c1sccc1NCc1ccnc2ccccc12 , what value of Kd is listed for Epidermal growth factor receptor (Homo sapiens)? > 30 µM (inactive)

// lookup Kd | system=Epidermal growth factor receptor (Homo sapiens) | key= CNC(=O)c1cc(COc2nnc(Nc3ccc(Cl)cc3)c3ccoc23)ccn1 > 30 µM (inactive)

Please tell me: Kd of O=C(NOC[C@H](O)CO)c1ccc(F)c(F)c1Nc1ccc(I)cc1F , system Epidermal growth factor receptor (Homo sapiens)? > 30 µM (inactive)

Give Kd (Epidermal growth factor receptor (Homo sapiens)) of the following compound: Cc1c(Cn2c(C)nc3c(C(=O)O)cc(N4CCOCC4)cc32)cccc1C(F)(F)F > 30 µM (inactive)

Form field: Kd recorded for Cc1cc(Nc2nc(N[C@@H](C)c3ncc(F)cn3)ncc2Cl)n[nH]1 with Epidermal growth factor receptor (Homo sapiens) (enter value) > 30 µM (inactive)

Find the measured Kd: item Cc1ccc(C(=O)Nc2ccc(Oc3cc4cnn(C)c4cc3-c3cn[nH]c3)c(F)c2)c(=O)n1-c1ccc(F)cc1 , target or system Epidermal growth factor receptor (Homo sapiens). > 30 µM (inactive)

Quick check: Kd on Epidermal growth factor receptor (Homo sapiens), item COc1cc2ncnc3c2cc1OCCCCCN(C)Cc1ccc(Br)cc1N3 ? 0.602 µM (active)

Checklist item: Kd tested on Epidermal growth factor receptor (Homo sapiens), entry C=CCn1c(=O)c2cnc(Nc3ccc(N4CCN(C)CC4)cc3)nc2n1-c1cccc(C(C)(C)O)n1 , value? > 30 µM (inactive)

Find Kd (Epidermal growth factor receptor (Homo sapiens)) for the entry NC(=O)c1ccc(N(C(N)=O)c2c(F)cccc2F)nc1-c1ccc(F)cc1F > 30 µM (inactive)

###

TESTED_SYSTEM: UniProt P49841
Sequence (P49841 whole entry): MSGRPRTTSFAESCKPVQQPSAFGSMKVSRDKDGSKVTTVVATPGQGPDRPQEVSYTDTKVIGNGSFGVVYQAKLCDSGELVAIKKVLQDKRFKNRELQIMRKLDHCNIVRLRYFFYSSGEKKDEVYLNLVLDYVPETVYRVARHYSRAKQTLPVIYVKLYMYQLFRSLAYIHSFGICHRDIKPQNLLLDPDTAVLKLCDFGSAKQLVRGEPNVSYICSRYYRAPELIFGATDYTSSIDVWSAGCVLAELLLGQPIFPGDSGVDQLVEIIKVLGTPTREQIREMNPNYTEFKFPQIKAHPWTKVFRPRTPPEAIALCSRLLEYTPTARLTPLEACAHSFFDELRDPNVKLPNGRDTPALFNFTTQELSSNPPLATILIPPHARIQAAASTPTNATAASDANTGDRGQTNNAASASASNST
Active and inactive are the calls of the source.
Pick from y (active), n (inactive) when you respond.

Please indicate how the test categorized CC1(COc2ccc3c(c2)ncn3-c2ccc3cccc(N4CCC(N)CC4)c3n2)COC1 . n

Please state the recorded outcome for this compound: COc1cc2nccc(Oc3ccc(NC(=O)C4(C(=O)Nc5ccc(F)cc5)CC4)cc3)c2cc1OC [CABOZANTINIB] n

Which result was noted for this compound in the test: Cn1c(=O)c(F)c(Nc2ccc(I)cc2F)c2c(=O)n(C[C@@H](O)CO)cnc21 n

# fetch the recorded call for CN1CCN(c2nc(C3=C(c4c[nH]c5ccccc45)C(=O)NC3=O)c3ccccc3n2)CC1 here y

Hello, I am checking results. What call was entered for COc1ccc(-c2ccc3ncc4c(c3c2)n(-c2ccc(N3CCNCC3)c(C(F)(F)F)c2)c(=O)n4C)cn1 [BGT-226 FREE BASE] ? n

What did the test return for C=CC(=O)Nc1cccc(Nc2nc(Nc3ccc(N4CCN(C(C)=O)CC4)cc3OC)ncc2C(F)(F)F)c1 ? n

Please state the recorded outcome for this compound: O=C(NC[C@H](O)CO)c1ccncc1Nc1ccc(I)cc1F n

Each compound tested received a call. Report the one for C=CC(=O)Nc1cc(Nc2nccc(-c3cn(C)c4ccccc34)n2)c(OC)cc1N(C)CCN(C)C . n

# fetch the recorded call for Cc1c(NC(=O)OC[C@@H]2COCCN2)cn2ncnc(Nc3ccc4c(cnn4Cc4cccc(F)c4)c3)c12 here n

// outcome(item) with item = O=C(Nc1ccc(OC(F)(F)F)cc1)c1sccc1NCc1ccnc2ccccc12 n

Each compound tested received a call. Report the one for COCCN1CCN(Cc2ccc(-c3n[nH]c4c3C(=O)c3c(NC(=O)NN5CCOCC5)cccc3-4)cc2)CC1 . y

For this compound, state the assay outcome: CNC(=O)c1cc(COc2nnc(Nc3ccc(Cl)cc3)c3ccoc23)ccn1 n

Record request — test call for COc1ccc2c(OCc3nnc4ccc(-c5ccccc5)nn34)ccnc2c1 n

I'd appreciate the recorded outcome for COc1cc(Nc2ncc(F)c(Nc3ccc4c(n3)N(COP(=O)(O)O)C(=O)C(C)(C)O4)n2)cc(OC)c1OC from this test. n

GET /call?item= Cc1cc(-c2cc(OC(=O)c3ccccc3)ccc2Cl)cc2nnc(Nc3ccc(OCCN4CCCC4)cc3)nc12 returns the recorded outcome of this test. n

// return assay outcome for O=S(=O)(c1cccc2c(O)nccc12)N1CCCNCC1 [HYDROXYFASUDIL] n

Could you check what this test reported for COc1cc2ncnc3c2cc1OCCCCCN(C)Cc1ccc(Br)cc1N3 ? n

Identify the outcome logged in this assay for the compound shown: COc1cc2ncnc(Nc3ccc(O)cc3)c2cc1OC n

Test call for this compound, please: CC(C)CC(=O)Nc1[nH]nc2c1CN(C(=O)C1CCN(C)CC1)C2(C)C y

Hi, do you know how C=CCN(/C=C1/C(=O)O[C@H](COC)[C@@]2(C)C1=C(O)C(=O)C1=C2[C@H](OC(C)=O)C[C@]2(C)C(=O)CC[C@@H]12)CC=C came out in this test? n

Dear all, I need the recorded test outcome for Cc1cc(Nc2nc(N[C@@H](C)c3ncc(F)cn3)ncc2Cl)n[nH]1 , thank you. n

I would be grateful if you could indicate the recorded call for COc1cccc2cc(-c3nc([C@H]4CC[C@H](C(=O)O)CC4)n4ncnc(N)c34)[nH]c12 . n

Query: recorded result category for Cc1cc(C(=O)Nc2cc(Oc3ccc4nc(NC(=O)C5CC5)cn4n3)ccc2C)n(C)n1 in this test n

// return assay outcome for NC(=O)c1ccc(N(C(N)=O)c2c(F)cccc2F)nc1-c1ccc(F)cc1F n

For Cn1cc(-c2[nH]c3cc(NC(=O)[C@H](N)C4CCCCC4)cc4c3c2C=NNC4=O)cn1 , which call appears in the assay record? n

Each compound tested received a call. Report the one for CCc1cc2c(cc1N1CCC(N3CCOCC3)CC1)C(C)(C)c1[nH]c3cc(C#N)ccc3c1C2=O . n

State the result this test recorded for Cc1ccc(C(=O)Nc2ccc(Oc3cc4cnn(C)c4cc3-c3cn[nH]c3)c(F)c2)c(=O)n1-c1ccc(F)cc1 . n

Recorded test call requested for COc1cc2ncnc(Nc3ccc(F)c(Cl)c3)c2cc1NC(=O)/C=C/CN1CCCCC1 [DACOMITINIB ANHYDROUS] n

Which outcome was assigned to C#Cc1cccc(Nc2ncnc3cc4c(cc23)OCCOCCOCCO4)c1 in this test? n

# lookup: test call for CNC(=O)c1ccc(Nc2ncc(C(F)(F)F)c(NCc3nccnc3N(C)S(C)(=O)=O)n2)cc1 y

Name the outcome recorded for NC[C@@](O)(c1ccc(Cl)cc1)c1ccc(-c2cn[nH]c2)cc1 in the assay. n

Dear all, I need the recorded test outcome for CNC(=O)c1cccc(-c2ccc3c(N4CCOC[C@@H]4C)nc(N4CCOC[C@@H]4C)nc3n2)c1 , thank you. n
